These measurements were taken from PubChem BioAssay.

Assay: inhibition of 3D7 malaria parasite growth – strain 3D7 (AID 2306);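 also: 0% = DMSO wells and 100% = chloroquine plus artemisinin control wells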
Conditions: P. falciparum 3D7 erythrocytic growth, LDH absorbance, 72 h; at 2 µM; stronger effect = higher value
The following molecules are listed with their measured growth inhibition values.
measured_quantity: growth inhibition (%)

- molecule: "Cc1cccc2[nH]c(-c3cccc(-c4ccc(NC(=O)C(C)CN5CCOCC5)cc4)c3)nc12 (stereo not given)"
  measured_quantity: "growth inhibition"
  measure_unit: "%"
  reported: 93
- molecule: "c1ccc2c(c1)CN(CC1CCOCC1)CC1(CCN(Cc3c[nH]c4cnccc34)CC1)O2"
  measured_quantity: "growth inhibition"
  measure_unit: "%"
  reported: 99
- molecule: "CCC[C@@H]1CCN[C@H]([C@H](O)c2ccnc3ccc(OC)cc23)C1"
  measured_quantity: "growth inhibition"
  measure_unit: "%"
  reported: 99
- molecule: "C[C@H](Cc1ccc(CCc2ccc(C[C@@H](C)NC[C@H](O)c3cccc(Cl)c3)cc2)cc1)NC[C@H](O)c1cccc(Cl)c1"
  measured_quantity: "growth inhibition"
  measure_unit: "%"
  reported: 95
- molecule: "O=C(Nc1ccc(Cl)c(Cl)c1)Nc1ccccc1N1CCNCC1"
  measured_quantity: "growth inhibition"
  measure_unit: "%"
  reported: 101

----------
The following molecules are listed with their measured growth inhibition values.
Experiment: inhibition of 3D7 malaria parasite growth – strain 3D7 (AID 2306);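 also: 0% = DMSO wells and 100% = chloroquine plus artemisinin control wells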
Details: P. falciparum 3D7 erythrocytic growth, LDH absorbance, 72 h; at 2 µM; stronger effect = higher value
measured_quantity: growth inhibition (%)

- molecule: "N#Cc1ccc(-c2ccc(C(=O)NC3CCN(CCN4CCc5c(cccc5C(F)(F)F)C4)CC3)cc2)cc1"
  measured_quantity: "growth inhibition"
  reported: 98
- molecule: "CCCCCCN1CCCN(Cc2ccc(C(=O)Nc3ccc(Cl)cc3)cc2)CC1"
  measured_quantity: "growth inhibition"
  reported: 89
- molecule: "CCNc1cc(C(=O)N[C@@H](Cc2ccccc2)[C@H](O)CNC(C)(C)CCCC(C)C)cc(N2CCCCS2(=O)=O)c1"
  measured_quantity: "growth inhibition"
  reported: 98
- molecule: "CN=C(N)c1ccc(NC(=O)Nc2ccc(C(N)=NC)cc2)cc1"
  measured_quantity: "growth inhibition"
  reported: 84
- molecule: "N#Cc1cncc(-c2nc3c(N4CCC(Cc5ccccc5)CC4)cccc3n2CCNCc2ccccc2)c1"
  measured_quantity: "growth inhibition"
  reported: 99
- molecule: "Cc1cc(N[C@@H](CC(C)C)C(=O)NC2CCCC2)nc(NCC2CCCCC2)n1"
  measured_quantity: "growth inhibition"
  reported: 101
- molecule: "CCN(CC)CCCC(C)Nc1cc(C)nc2cc(Cl)ccc12 (centres undefined)"
  measured_quantity: "growth inhibition"
  reported: 100
- molecule: "Fc1ccc2nc(-c3cccc(-c4cccc(CN5CCN(c6cnccn6)CC5)c4)c3)[nH]c2c1"
  measured_quantity: "growth inhibition"
  reported: 93
- molecule: "CC(C)N(CCOc1ccc2c(c1)N(C(=O)Nc1ccc(Cl)c(Cl)c1)CC2)C(C)C"
  measured_quantity: "growth inhibition"
  reported: 101
- molecule: "O=C(/C=C/c1ccc(Cl)cc1)Nc1ccc2nc(CN3CCCC3)ccc2c1"
  measured_quantity: "growth inhibition"
  reported: 85
- molecule: "O=C(Nc1ccc(Cn2ncc(N3CCCNCC3)c(Cl)c2=O)cc1)Nc1cccc(SC(F)(F)F)c1"
  measured_quantity: "growth inhibition"
  reported: 92
- molecule: "CN1CCN(Cc2ccc(-c3ccc4ncnc(Nc5ccc(OCc6ccccc6)cc5)c4c3)o2)CC1"
  measured_quantity: "growth inhibition"
  reported: 97
- molecule: "CN(C)c1ccc(CN2CCC(CNC(=O)c3cc(-c4cccc(F)c4)cs3)C2)cc1 (centres undefined)"
  measured_quantity: "growth inhibition"
  reported: 96
- molecule: "CCN(CC)CCN(Cc1ccc(-c2ccc(C(F)(F)F)cc2)cc1)C(=O)Cn1c(CCc2cc(F)cc(F)c2F)nc(=O)c2ccccc21"
  measured_quantity: "growth inhibition"
  reported: 101
- molecule: "CC(C)c1ccc(N2CCN(CCCCNC(=O)c3ccc(NC(=O)c4cc(Cl)cc(Cl)c4)cc3)CC2)cc1"
  measured_quantity: "growth inhibition"
  reported: 101
- molecule: "Cn1cnc(CCNC(=O)c2ccc(-c3cccc(-c4nc5ccc(C(F)(F)F)cc5[nH]4)c3)cc2)c1"
  measured_quantity: "growth inhibition"
  reported: 101
- molecule: "COc1ccc(CNc2ncc(-c3ccsc3)c(-c3nccs3)n2)cc1OC"
  measured_quantity: "growth inhibition"
  reported: 86
- molecule: "CS(=O)(=O)N1CC2(CCN(CCC(NC(=O)Nc3ccccc3)c3ccc(Cl)c(Cl)c3)CC2)c2ccccc21 (centres undefined)"
  measured_quantity: "growth inhibition"
  reported: 99
- molecule: "Cc1ccc(C(=O)Nc2ccc(F)c(F)c2F)cc1S(=O)(=O)N1CCCCC1"
  measured_quantity: "growth inhibition"
  reported: 92
